All figures here come from patent US20230310428A1.

# Tested On: various mutants of kinase EGFR (BaF3 cell lines stably transfected with kinase) (Homo sapiens, UniProt P00533)
# Construct: other: BaF3 cells stably transfected with EGFR Δ19Del; MTS, 48 h; other: BaF3 cell line stably transfected with EGFR Δ19Del
# Sequence (P00533 with tags, fused parts or gaps DEL746-750): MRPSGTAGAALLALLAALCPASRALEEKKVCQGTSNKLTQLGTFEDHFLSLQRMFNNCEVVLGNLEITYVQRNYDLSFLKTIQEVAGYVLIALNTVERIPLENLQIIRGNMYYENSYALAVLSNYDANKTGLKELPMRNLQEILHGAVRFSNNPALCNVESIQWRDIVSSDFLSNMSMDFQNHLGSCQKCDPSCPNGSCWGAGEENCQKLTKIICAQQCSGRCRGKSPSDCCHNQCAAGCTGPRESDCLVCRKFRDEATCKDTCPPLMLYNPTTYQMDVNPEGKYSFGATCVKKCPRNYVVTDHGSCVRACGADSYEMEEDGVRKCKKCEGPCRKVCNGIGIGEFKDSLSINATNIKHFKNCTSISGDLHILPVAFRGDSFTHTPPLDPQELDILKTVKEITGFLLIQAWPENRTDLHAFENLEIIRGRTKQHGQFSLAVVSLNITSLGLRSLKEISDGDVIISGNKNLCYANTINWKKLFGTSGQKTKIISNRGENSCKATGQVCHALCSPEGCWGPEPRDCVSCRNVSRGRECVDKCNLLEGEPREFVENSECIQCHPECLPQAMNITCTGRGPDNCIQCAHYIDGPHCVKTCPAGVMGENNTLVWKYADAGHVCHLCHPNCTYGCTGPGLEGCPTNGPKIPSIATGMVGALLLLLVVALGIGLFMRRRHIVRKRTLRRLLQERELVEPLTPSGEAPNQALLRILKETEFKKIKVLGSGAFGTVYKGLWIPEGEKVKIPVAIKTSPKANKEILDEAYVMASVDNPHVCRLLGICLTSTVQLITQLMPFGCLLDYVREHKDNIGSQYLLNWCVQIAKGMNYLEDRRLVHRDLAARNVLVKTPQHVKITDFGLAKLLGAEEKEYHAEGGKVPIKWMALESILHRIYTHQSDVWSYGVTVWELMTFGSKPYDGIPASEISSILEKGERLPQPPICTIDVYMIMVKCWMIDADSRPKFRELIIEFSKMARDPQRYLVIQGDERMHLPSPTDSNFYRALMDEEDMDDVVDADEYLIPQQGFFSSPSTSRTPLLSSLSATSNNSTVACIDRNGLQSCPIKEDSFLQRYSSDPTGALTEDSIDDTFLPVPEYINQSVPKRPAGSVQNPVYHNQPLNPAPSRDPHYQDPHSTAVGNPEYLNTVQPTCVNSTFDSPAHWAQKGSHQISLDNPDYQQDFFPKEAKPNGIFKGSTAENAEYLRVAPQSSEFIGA
# Run Description: Growth inhibitory activity of compounds on BaF3 cell lines stably transfected with kinase (MTS, 48 h)
# Assay type: cell-based
# Conditions: BaF3 cells stably transfected with EGFR Δ19Del, read-out: IC50, growth inhibition, Δ19Del
pIC50: −log10 of the molar value.
Measurement Kind: pIC50

1) COc1cc(N2CCN(C)CC2)c(C)cc1Nc1ncc(Cl)c(Nc2ccc3nccnc3c2N(C)S(=O)(=O)C(F)(F)F)n1 ... 5.60 to 6.30
2) CCc1cc(Nc2ncc(C3CC3)c(Nc3ccc4nccnc4c3N(C)S(C)(=O)=O)n2)c(OC)cc1N1CCC(N2CCN(C)CC2)CC1 ... ≥ 7.30
3) CN1CCN(C(=O)c2cccc(Nc3ncc(Br)c(Nc4ccc5nccnc5c4N(C)S(C)(=O)=O)n3)c2)CC1 ... 6.30 to 7.30
4) COc1cc2c(cc1Nc1ncc(Br)c(Nc3ccc4nccnc4c3N(C)S(C)(=O)=O)n1)CN(C)CC2 ... 5.60 to 6.30
5) COc1cc(N2CCC(N3CCN(C)CC3)CC2)c(CC2CC2)cc1Nc1ncc(Br)c(Nc2ccc3nccnc3c2N(C)S(=O)(=O)C(F)(F)F)n1 ... 5.60 to 6.30
6) CN1CCN(C2CCN(c3ccc(Nc4ncc(Cl)c(Nc5ccc6nccnc6c5N(C)S(C)(=O)=O)n4)c(OC(F)(F)F)c3)CC2)CC1 ... 6.30 to 7.30
7) COc1cc(N2CCC(N3CCN(C)CC3)CC2)c(C)cc1Nc1ncc(Br)c(Nc2ccc3nccnc3c2N(C)S(C)(=O)=O)n1 ... ≥ 7.30
8) COc1cc(N2CCC(N3CCN(C)CC3)CC2)c(CC2CC2)cc1Nc1ncc(Br)c(Nc2ccc3nccnc3c2N(C)S(C)(=O)=O)n1 ... 6.30 to 7.30
9) COc1nc(N2CCC(N3CCN(C)CC3)CC2)c(C)cc1Nc1ncc(Cl)c(Nc2ccc3nccnc3c2N(C2CC2)S(C)(=O)=O)n1 ... 5.60 to 6.30
10) COc1cc(N2CCC(N3CCN(C)CC3)CC2)ccc1Nc1ncc(F)c(Nc2ccc3nccnc3c2N(C)S(C)(=O)=O)n1 ... 6.30 to 7.30
11) CCc1cc(Nc2ncc(Br)c(Nc3ccc4nccnc4c3N(CC)S(C)(=O)=O)n2)c(OC)cc1N1CCN(C)CC1 ... 6.30 to 7.30
12) CCc1cc(Nc2ncc(Cl)c(Nc3ccc4nccnc4c3N(C)S(C)(=O)=O)n2)ccc1N1CCC(N2CCN(C)CC2)CC1 ... ≥ 7.30
13) CCc1cc(Nc2ncc(Cl)c(Nc3ccc4nccnc4c3N(C)S(=O)(=O)C3CC3)n2)c(OC)cc1N1CCC(N2CCN(C)CC2)CC1 ... ≥ 7.30

----------
# Tested On: various mutants of kinase EGFR (BaF3 cell lines stably transfected with kinase) (Homo sapiens, UniProt P00533, T790M, form not given)
# Construct: other: BaF3 cells stably transfected with EGFR Δ19Del/T790M; MTS, 48 h; other: BaF3 cell line stably transfected with EGFR Δ19Del/T790M; MTS, 48
# Sequence (P00533 with tags, fused parts or gaps DEL746-750/T790M, form open): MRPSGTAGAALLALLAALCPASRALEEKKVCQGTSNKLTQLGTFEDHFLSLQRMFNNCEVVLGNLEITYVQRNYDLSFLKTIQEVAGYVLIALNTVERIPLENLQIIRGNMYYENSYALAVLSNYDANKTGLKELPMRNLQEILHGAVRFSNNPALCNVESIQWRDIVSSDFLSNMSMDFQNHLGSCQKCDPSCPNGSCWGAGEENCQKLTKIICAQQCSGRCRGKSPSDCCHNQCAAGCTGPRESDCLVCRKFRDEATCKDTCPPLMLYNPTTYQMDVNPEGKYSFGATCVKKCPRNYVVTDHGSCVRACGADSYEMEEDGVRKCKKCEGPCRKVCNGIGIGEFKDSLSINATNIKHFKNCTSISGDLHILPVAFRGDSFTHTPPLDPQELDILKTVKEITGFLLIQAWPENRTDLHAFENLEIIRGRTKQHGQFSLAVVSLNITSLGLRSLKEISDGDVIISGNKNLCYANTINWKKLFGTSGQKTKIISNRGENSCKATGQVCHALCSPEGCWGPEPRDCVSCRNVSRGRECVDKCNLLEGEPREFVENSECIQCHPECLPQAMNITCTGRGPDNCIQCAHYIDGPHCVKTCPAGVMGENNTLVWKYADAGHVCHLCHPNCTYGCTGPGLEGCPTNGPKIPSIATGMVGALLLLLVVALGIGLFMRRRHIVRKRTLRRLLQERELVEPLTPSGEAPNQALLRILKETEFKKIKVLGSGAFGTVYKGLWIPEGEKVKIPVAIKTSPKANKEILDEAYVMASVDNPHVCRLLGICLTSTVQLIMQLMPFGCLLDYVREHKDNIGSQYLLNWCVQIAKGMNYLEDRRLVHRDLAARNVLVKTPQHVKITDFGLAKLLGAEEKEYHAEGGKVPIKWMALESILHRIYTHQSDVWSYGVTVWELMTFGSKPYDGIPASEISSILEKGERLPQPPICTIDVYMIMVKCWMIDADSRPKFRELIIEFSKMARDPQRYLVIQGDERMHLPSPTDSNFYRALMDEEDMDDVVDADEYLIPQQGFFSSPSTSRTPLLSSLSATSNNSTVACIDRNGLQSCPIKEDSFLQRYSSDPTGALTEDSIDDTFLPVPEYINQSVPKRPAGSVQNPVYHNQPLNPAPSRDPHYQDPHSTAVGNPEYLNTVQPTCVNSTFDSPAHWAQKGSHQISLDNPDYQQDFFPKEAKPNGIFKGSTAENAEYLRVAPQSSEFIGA
# Run Description: Growth inhibitory activity of compounds on BaF3 cell lines stably transfected with kinase (MTS, 48 h)
# Format: cell-based
# Conditions: BaF3 cells stably transfected with EGFR Δ19Del/T790M, read-out: IC50, growth inhibition, Δ19Del/T790M
# Procedure: The activity of compounds against various mutants of kinase EGFR was evaluated by their effect of inhibiting growth of BaF3 cell lines stably transfected with kinase. The specific test method was given as follows: […] 3) Compound test: cells were incubated into a 96-well culture plate, the volume of cytosol was 90 µL, and then 10 µL of the compound at each gradient concentration was added. […] OD values at 490 nm were measured by a microplate reader (VARIOSKAN FLASH, Thermo). […]
Measurement Kind: IC50

1) COc1cc(N2CCC(N(C)C)C2)c(C)cc1Nc1ncc(F)c(Nc2ccc3nccnc3c2N(C)S(C)(=O)=O)n1 (stereo not drawn) ... 50 to 500 nM
2) CCc1cc(Nc2ncc(F)c(Nc3ccc4nccnc4c3N(C)S(C)(=O)=O)n2)c(OC)cc1N1CCC(N(C)C)C1 (stereo not drawn) ... ≤ 50 nM
3) COc1cc(N2CCN(C)CC2)c(C)cc1Nc1ncc([N+](=O)[O-])c(Nc2ccc3nccnc3c2N(C)S(C)(=O)=O)n1 ... 50 to 500 nM
